System: H3N8 A/Miami/2/63
Conditions: A/Miami/2/63, 48 h, 500 μM
Bridge positions count the residues as written; N and C are the ends. Square brackets hold non-standard residues; d marks the D form. Peptide text beside a SMILES is read from it.
The compounds listed here are annotated with their % inhibition H3N8.
Numbers only here, please. The scale is %.

[
  {
    "Compound": "C[C@H](O)[C@H]1NC(=O)[C@H](N)CSSC[C@H](C(=O)O)NC(=O)[C@@H](CC(N)=O)NC(=O)[C@@H](Cc2ccccc2)NC(=O)[C@@H](Cc2ccccc2)NC(=O)[C@@H](CCCNC(=N)N)NC(=O)[C@@H](CO)NC(=O)[C@@H](CCCCN)NC1=O [PSP 5, H-ctksrffnc-OH] (H-[dC][dT][dK][dS][dR][dF][dF][dN][dC]-OH; disulfide 1-9)",
    "Measurement units": "%",
    "% inhibition H3N8": 77.3
  }
]

Can you look up the measured % inhibition H3N8 of CC(C)C[C@H]1NC(=O)[C@@H](Cc2ccccc2)NC(=O)[C@@H](CCCNC(=N)N)NC(=O)[C@@H](CO)NC(=O)[C@@H](CCCCN)NC(=O)[C@@H]([C@H](C)O)NC(=O)[C@H](N)CSSC[C@H](C(=O)O)NC(=O)[C@@H](CC(N)=O)NC1=O [PSP 10, H-ctksrflnc-OH] (H-[dC][dT][dK][dS][dR][dF][dL][dN][dC]-OH; disulfide 1-9) for me?
82.5

###

System: H3N8 A/Miami/2/63
Conditions: A/Miami/2/63, 48 h, 10 μM
Bridge positions count the residues as written; N and C are the ends. Square brackets hold non-standard residues; d marks the D form. Peptide text beside a SMILES is read from it.
The compounds listed here are annotated with their % inhibition H3N8.
Numbers only here, please. The scale is %.

Quick check: % inhibition H3N8 on H3N8 A/Miami/2/63, item CC[C@@H](C)[C@H]1NC(=O)[C@@H](Cc2ccccc2)NC(=O)[C@@H]([C@H](C)CC)NC(=O)[C@@H](Cc2ccccc2)NC(=O)[C@@H](Cc2c[nH]c3ccccc23)NC(=O)[C@@H]([C@H](C)O)NC(=O)[C@H](NC(=O)[C@H](CCCCN)NC(=O)[C@H](CCCCN)NC(=O)[C@H](CCCNC(=N)N)NC(=O)[C@@H](N)CCCNC(=N)N)CSSC[C@H](C(=O)O)NC(=O)[C@@H](CC(N)=O)NC1=O [PSP IV A8, H-RRKKctwfifinc-OH] (H-RRKK[dC][dT][dW][dF][dI][dF][dI][dN][dC]-OH; disulfide 5-13) ?
96

Quick check: % inhibition H3N8 on H3N8 A/Miami/2/63, item CC[C@@H](C)[C@H]1NC(=O)[C@@H](Cc2ccccc2)NC(=O)[C@@H](CCCCN)NC(=O)[C@@H](Cc2ccccc2)NC(=O)[C@@H](Cc2c[nH]c3ccccc23)NC(=O)[C@@H]([C@H](C)O)NC(=O)[C@H](NC(=O)[C@H](CCCCN)NC(=O)[C@H](CCCCN)NC(=O)[C@H](CCCNC(=N)N)NC(=O)[C@@H](N)CCCNC(=N)N)CSSC[C@H](C(=O)O)NC(=O)[C@@H](CC(N)=O)NC1=O [PSP IV A9, H-RRKKctwfkfinc-OH] (H-RRKK[dC][dT][dW][dF][dK][dF][dI][dN][dC]-OH; disulfide 5-13) ?
79

Quick check: % inhibition H3N8 on H3N8 A/Miami/2/63, item CC[C@@H](C)[C@H]1NC(=O)[C@@H](Cc2ccccc2)NC(=O)CNC(=O)[C@@H](Cc2ccccc2)NC(=O)[C@@H](Cc2c[nH]c3ccccc23)NC(=O)[C@@H]([C@H](C)O)NC(=O)[C@H](NC(=O)[C@H](CCCCN)NC(=O)[C@H](CCCCN)NC(=O)[C@H](CCCNC(=N)N)NC(=O)[C@@H](N)CCCNC(=N)N)CSSC[C@H](C(=O)O)NC(=O)[C@@H](CC(N)=O)NC1=O [PSP IV A6, H-RRKKctwfGfinc-OH] (H-RRKK[dC][dT][dW][dF]G[dF][dI][dN][dC]-OH; disulfide 5-13) ?
57

Quick check: % inhibition H3N8 on H3N8 A/Miami/2/63, item CC[C@@H](C)[C@H]1NC(=O)[C@@H](Cc2ccccc2)NC(=O)[C@@H](CS)NC(=O)[C@@H](Cc2ccccc2)NC(=O)[C@@H](Cc2c[nH]c3ccccc23)NC(=O)[C@@H]([C@H](C)O)NC(=O)[C@H](NC(=O)[C@H](CCCCN)NC(=O)[C@H](CCCCN)NC(=O)[C@H](CCCNC(=N)N)NC(=O)[C@@H](N)CCCNC(=N)N)CSSC[C@H](C(=O)O)NC(=O)[C@@H](CC(N)=O)NC1=O [PSP IV A2, H-RRKKctwfcfinc-OH] (H-RRKK[dC][dT][dW][dF][dC][dF][dI][dN][dC]-OH; disulfide 5-13) ?
76
